Reference source for all entries: patent US8679514B2

# Tested on: Phytophthora infestans
# Procedure summary: microbe, parasite or virus in culture
# Assay type: cell-based
# Condition description: Phytophthora infestans, read-out: Observed activity (%)
Quantity measured: inhibition at 1 µg/mL (%)
Kindly provide the numeric value in % only, without the unit symbol.

Compound	Test result
O=C1C2CC=CCC2C(=O)N1SC(Cl)(Cl)Cl (centres unmarked) [captan, reference compound]	12
Cc1nc2ncnn2c(N)c1CCC(C)CC(C)(C)C (centres unmarked) [Compound I-28]	24
CCCC1COC(Cn2cncn2)(c2ccc(Cl)cc2Cl)O1 (centres unmarked) [propiconazole]	1
CC1CCN(c2c(-c3c(F)cc(F)cc3F)c(Cl)nc3ncnn23)CC1 [[D-8], reference compound]	43
C[Si](Cn1cncn1)(c1ccc(F)cc1)c1ccc(F)cc1 [flusilazole]	0
CCCCCCCCc1c(CCC)nc2ncnn2c1N [Compound I-180]	17
CCCCCCCCc1c(C(F)(F)F)nc2ncnn2c1N [Compound I-98]	16
O=c1c2cc(F)ccc2nc(-n2cncn2)n1-c1ccc(Cl)cc1Cl [fluquinconazole, reference compound]	0

Input: Read the entry COCC(=O)N(c1c(C)cccc1C)C(C)C(=O)OC (racemic) [metalaxyl, reference compound] and write its reported inhibition at 1 µg/mL.
Output: 6

Input: Read the entry CON=C(C(=O)OC)c1ccccc1CON=C(C)c1cccc(C(F)(F)F)c1 [trifloxystrobin] and write its reported inhibition at 1 µg/mL.
Output: 46

Input: Read the entry O=C(Nc1ccccc1-c1ccc(Cl)cc1)c1cccnc1Cl [boscalid] and write its reported inhibition at 1 µg/mL.
Output: 2

---

Recorded measurements of inhibition at […], one per entry
# Test system: Botrytis cinerea
# Procedure summary: Activity against the gray mold pathogen Botrytis cinerea in the microtiter test
# Assay type: cell-based
# Condition description: Botrytis cinerea; Conc. 0.063 mg/l, single active compound; read-out: Observed activity (%)
State the result as a value with its unit after it.

Compound	Test result
CCCCCCCCc1c(CC)nc2nc(N)nn2c1N [Compound I-120]	0%

Input: Read the entry Cc1nc2ncnn2c(N)c1-c1ccc(C(C)(C)C)cc1 [Compound I-18] and write its reported inhibition at […].
Output: 6%

Input: Read the entry O=[N+]([O-])c1cc(C(F)(F)F)c(Cl)c([N+](=O)[O-])c1Nc1ncc(C(F)(F)F)cc1Cl [fluazinam] and write its reported inhibition at […].
Output: 50%

Input: Read the entry O=c1c2cc(F)ccc2nc(-n2cncn2)n1-c1ccc(Cl)cc1Cl [fluquinconazole, reference compound] and write its reported inhibition at […].
Output: 22%

Input: Read the entry CCCCCCCCc1c(CC)nc2ncnn2c1N [Compound I-110] and write its reported inhibition at […].
Output: 8%

---

# System: Botrytis cinerea
# Procedure summary: Activity against the gray mold pathogen Botrytis cinerea in the microtiter test
# Type: cell-based
# Condition description: Botrytis cinerea; Conc. 1 mg/l, single active compound; read-out: Observed activity (%)
Decide using inhibition at 1 µg/mL: a value greater than or equal to 5% is YES, a smaller one is NO.

Worked examples, 5 compounds total:
Compound	Answer label
CCCCCCCCc1c(CC)nc2nc(N)nn2c1N	YES
O=C1c2ccccc2C(=O)N1SC(Cl)(Cl)Cl	NO
CC(CCc1c(C(F)(F)F)nc2ncnn2c1N)CC(C)(C)C (centres unmarked)	NO
C=CC1(C)OC(=O)N(c2cc(Cl)cc(Cl)c2)C1=O (centres unmarked)	YES
CCCCCCCCc1nc2ncnn2c(N)c1CC	NO

Input: Reported inhibition at 1 µg/mL at or above 5%? "Cc1nc2ncnn2c(N)c1-c1ccc(C(C)(C)C)cc1"
Output: YES

Input: Reported inhibition at 1 µg/mL at or above 5%? "N#Cc1c(Cl)c(Cl)c(Cl)c(C#N)c1Cl"
Output: YES

---

# System: Phytophthora infestans
# Procedure summary: microbe, parasite or virus in culture
# Format: cell-based
# Condition description: Phytophthora infestans, read-out: Observed activity (%)
Decide using inhibition at 0.25 µg/mL: a value greater than or equal to 9% is YES, a smaller one is NO.

Molecule	Answer label
COC(=O)NCc1cc(C(C)=NOCc2cccc(C)c2)ccc1Cl [[B-6], reference compound]	YES

Input: Reported inhibition at 0.25 µg/mL at or above 9%? Cc1nc2ncnn2c(N)c1-c1ccc(C(C)(C)C)cc1 [Compound I-18]
Output: YES

Input: Reported inhibition at 0.25 µg/mL at or above 9%? CCCCCCCCc1c(CCC)nc2ncnn2c1N [Compound I-180]
Output: NO

Input: Reported inhibition at 0.25 µg/mL at or above 9%? Cc1nc2ncnn2c(N)c1-c1ccc(Cl)c(Cl)c1 [Compound I-9]
Output: NO

---

# Test system: Phytophthora infestans
# Procedure summary: microbe, parasite or virus in culture
# Type: cell-based
# Condition description: Phytophthora infestans, read-out: Observed activity (%)
Quantity measured: inhibition at 0.25 µg/mL (%)
Kindly provide the numeric value in % only, without the unit symbol.

A selection of reference data follows.
Compound	System name	Unit string	Test result
CCCCCCCCc1c(CC)nc2ncnn2c1N	Phytophthora infestans	%	5
CCCCCCCCc1c(C(F)(F)F)nc2ncnn2c1N	Phytophthora infestans	%	6
CON=C(C(=O)OC)c1ccccc1CON=C(C)c1cccc(C(F)(F)F)c1	Phytophthora infestans	%	33
CC(CCc1c(C(F)(F)F)nc2ncnn2c1N)CC(C)(C)C (centres unmarked)	Phytophthora infestans	%	3

// moving on: another record for inhibition at 0.25 µg/mL
Input: Read the entry "CCCCCCCCc1c(CC)nc2nc(N)nn2c1N" and write its reported inhibition at 0.25 µg/mL.
Output: 6

---

# System: Phytophthora infestans
# Procedure summary: microbe, parasite or virus in culture
# Type: cell-based
Quantity measured: Observed activity (%)

A selection of reference data follows.
Molecule	Test result
[Cu+2].[OH-].[OH-] [Cu(OH)2, copper hydroxide, reference compound]	2%
CO/C=C(/C(=O)OC)c1ccccc1CO/N=C(C)/C=C/c1ccc(Cl)cc1 [enestroburin]	35%
CC(C)OC(=O)N[C@H](C(=O)N[C@H](C)c1nc2ccc(F)cc2s1)C(C)C [flubenthiavalicarb]	68%

// moving on: another record for Observed activity (%)
Input: Read the entry CO/C=C(/C(=O)OC)c1ccccc1Oc1cc(Oc2ccccc2C#N)ncn1 [azoxystrobin] and write its reported Observed activity (%).
Output: 21%

---

# Tested on: Pyricularia oryzae
# Procedure summary: microbe, parasite or virus in culture
# Format: cell-based
# Condition description: Pyricularia oryzae, read-out: Observed activity (%)
Recorded measurements of inhibition at 4 µg/mL, one per entry
State the result as a value with its unit after it.

Compound	inhibition at 4 µg/mL
CCc1nc2ncnn2c(N)c1CCC(C)CC(C)(C)C (stereo not drawn)	7%
OC(Cc1ccccc1Cl)(Cn1nc[nH]c1=S)C1(Cl)CC1 (stereo not drawn) [prothioconazole, reference compound]	11%
CCCCCCCCc1c(C(F)(F)F)nc2ncnn2c1N	15%

Input: Read the entry Cc1ccc(-c2c(Cl)nc(C#N)n2S(=O)(=O)N(C)C)cc1 [cyazofamid, reference compound] and write its reported inhibition at 4 µg/mL.
Output: 23%

Input: Read the entry CC(CCc1c(C(F)(F)F)nc2ncnn2c1N)CC(C)(C)C (stereo not drawn) and write its reported inhibition at 4 µg/mL.
Output: 16%

Input: Read the entry CC(C1CC1)C(O)(Cn1cncn1)c1ccc(Cl)cc1 (stereo not drawn) and write its reported inhibition at 4 µg/mL.
Output: 54%

Input: Read the entry "Cc1nc2ncnn2c(N)c1-c1ccc(C(C)(C)C)cc1" and write its reported inhibition at 4 µg/mL.
Output: 18%

Input: Read the entry CC(C)NC(=O)N1CC(=O)N(c2cc(Cl)cc(Cl)c2)C1=O [iprodione, reference compound] and write its reported inhibition at 4 µg/mL.
Output: 46%

Input: Read the entry O=c1c2cc(F)ccc2nc(-n2cncn2)n1-c1ccc(Cl)cc1Cl [fluquinconazole, reference compound] and write its reported inhibition at 4 µg/mL.
Output: 0%

---

# Test system: Phytophthora infestans
# Procedure summary: microbe, parasite or virus in culture
# Type: cell-based
# Condition description: Phytophthora infestans, read-out: Observed activity (%)
Decide using inhibition at 0.25 µg/mL: a value greater than or equal to 5% is yes, a smaller one is no.

Compound	System name	Answer label
CCc1nc2ncnn2c(N)c1CCC(C)CC(C)(C)C (centres unmarked)	Phytophthora infestans	no
CCCCCCCCc1nc2ncnn2c(N)c1CC	Phytophthora infestans	no
Cc1nc2ncnn2c(N)c1CCC(C)CC(C)(C)C (centres unmarked)	Phytophthora infestans	yes

Input: Reported inhibition at 0.25 µg/mL at or above 5%? "CCCCCCCCc1c(COC)nc2ncnn2c1N"
Output: yes
